- target desc: T1, recombinant human VEGFR2 extracellular domain (human, UniProt P35968 20-764)
- T1 construct: extracellular domain; also called KDR; Flk-1
- T1 sequence (P35968 20-764): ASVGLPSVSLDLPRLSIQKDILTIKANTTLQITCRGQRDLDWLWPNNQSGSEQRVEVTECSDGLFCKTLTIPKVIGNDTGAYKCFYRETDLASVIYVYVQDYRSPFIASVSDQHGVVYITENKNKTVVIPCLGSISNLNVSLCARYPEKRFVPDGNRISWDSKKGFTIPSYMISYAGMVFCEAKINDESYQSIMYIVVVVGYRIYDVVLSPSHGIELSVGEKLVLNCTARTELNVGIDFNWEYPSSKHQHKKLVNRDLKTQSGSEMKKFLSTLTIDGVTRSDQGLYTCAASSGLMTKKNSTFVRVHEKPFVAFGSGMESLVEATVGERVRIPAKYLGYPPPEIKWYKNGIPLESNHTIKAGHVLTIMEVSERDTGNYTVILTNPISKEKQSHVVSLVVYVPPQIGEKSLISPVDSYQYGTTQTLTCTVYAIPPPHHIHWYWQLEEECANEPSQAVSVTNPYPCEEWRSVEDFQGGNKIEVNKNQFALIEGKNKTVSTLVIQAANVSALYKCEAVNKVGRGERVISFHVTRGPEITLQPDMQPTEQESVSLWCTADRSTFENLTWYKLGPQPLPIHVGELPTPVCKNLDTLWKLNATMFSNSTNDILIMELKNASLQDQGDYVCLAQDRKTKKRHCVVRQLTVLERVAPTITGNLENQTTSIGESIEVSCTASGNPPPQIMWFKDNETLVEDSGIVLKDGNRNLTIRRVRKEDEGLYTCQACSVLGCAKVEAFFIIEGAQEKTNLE
- assay notes: SPR (BIAcore 3000), VEGFR2 amine-coupled to CM5 chip, scVEGF as analyte, 1:1 model
reported metric: koff

binder scVEGF-mE (designed binder, Soluble protein with C-terminal hexahistidine tag, with or without N-terminal FLAG tag (tags not included in the parts); also called scVEGFmut-E) EVVKAMDVYQRSYCHPIETLVDILQEYPDEIGYIFKPSCVPLMRCGGCCNGAGLECVPTEESNITMQIMRIKPHRGQHIGEMSFLQHNKCECRPKKDGSTSGSGKSSEGKGEVVRFMDVYQRSYCHPIETLVDIFQEYPNEIEYAFKPSCVPLMRCGGCCNNEGLECVPTEESNITMQIMRAKPHQGQHIGEMSFLQHNKCECRPKKD , koff observed: 0.00061 s⁻¹
